Data credit: patent US20250313625A1

# test_system: T1, mFc tagged human LAG3 ECD recombinant protein (human, UniProt P18627 23-450)
# T1 construct: extracellular domain; purchased from Biointron; not shown: mouse IgG Fc (mFc) tag
# T1 sequence (looked up): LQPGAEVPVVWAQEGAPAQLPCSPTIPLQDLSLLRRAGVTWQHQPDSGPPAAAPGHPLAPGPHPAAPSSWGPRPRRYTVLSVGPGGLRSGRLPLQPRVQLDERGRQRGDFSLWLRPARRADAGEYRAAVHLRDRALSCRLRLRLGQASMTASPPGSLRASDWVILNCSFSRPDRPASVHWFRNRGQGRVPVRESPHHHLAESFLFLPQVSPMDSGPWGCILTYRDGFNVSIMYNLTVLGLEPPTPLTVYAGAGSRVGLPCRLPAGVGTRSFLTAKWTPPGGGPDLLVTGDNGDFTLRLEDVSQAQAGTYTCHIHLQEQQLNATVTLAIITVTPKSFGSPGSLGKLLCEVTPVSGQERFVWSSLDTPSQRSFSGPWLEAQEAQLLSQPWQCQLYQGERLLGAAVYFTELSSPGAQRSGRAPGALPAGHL
# measurement_protocol: competitive FACS: mFc-LAG3 ECD binding to Raji cells (MHC II)
Task for the reader: assign each of the following binders its reported TOP blocking (%).
Give bare numbers, in %.

| binder | number |
| --- | --- |
| hu023.11 (antibody, human IgG4, V domains shown, humanized from 023c) VH: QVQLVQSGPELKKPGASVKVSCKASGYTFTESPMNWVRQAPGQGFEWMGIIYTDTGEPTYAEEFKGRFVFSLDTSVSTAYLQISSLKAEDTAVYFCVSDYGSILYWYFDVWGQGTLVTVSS VL: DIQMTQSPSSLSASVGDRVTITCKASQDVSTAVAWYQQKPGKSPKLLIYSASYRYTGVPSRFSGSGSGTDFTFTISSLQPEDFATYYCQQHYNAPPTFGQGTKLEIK | 99.3 |
| hu023.10 (antibody, human IgG4, V domains shown, humanized from 023c) VH: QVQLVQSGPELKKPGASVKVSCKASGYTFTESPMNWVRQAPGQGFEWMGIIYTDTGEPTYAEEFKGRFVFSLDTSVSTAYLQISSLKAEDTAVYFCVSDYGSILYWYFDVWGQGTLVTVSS VL: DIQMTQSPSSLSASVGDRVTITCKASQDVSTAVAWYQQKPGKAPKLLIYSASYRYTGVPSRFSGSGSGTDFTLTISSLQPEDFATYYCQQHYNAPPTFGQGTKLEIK | 99.2 |

Next binder, TOP blocking (%) to be filled in.
-- ask Complete the entry with TOP blocking (%) for hu023.04 (antibody, human IgG4, V domains shown, humanized from 023c) VH: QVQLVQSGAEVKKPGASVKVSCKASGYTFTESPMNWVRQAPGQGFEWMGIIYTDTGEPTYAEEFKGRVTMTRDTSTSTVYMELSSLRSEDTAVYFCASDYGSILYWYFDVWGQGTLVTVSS VL: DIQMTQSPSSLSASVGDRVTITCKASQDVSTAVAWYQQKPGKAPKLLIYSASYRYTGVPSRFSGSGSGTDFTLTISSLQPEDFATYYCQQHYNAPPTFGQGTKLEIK
-- reply 99.2
